tested_on: Matrix metalloproteinase-9 (Homo sapiens, UniProt P14780)
Sequence (P14780 whole entry): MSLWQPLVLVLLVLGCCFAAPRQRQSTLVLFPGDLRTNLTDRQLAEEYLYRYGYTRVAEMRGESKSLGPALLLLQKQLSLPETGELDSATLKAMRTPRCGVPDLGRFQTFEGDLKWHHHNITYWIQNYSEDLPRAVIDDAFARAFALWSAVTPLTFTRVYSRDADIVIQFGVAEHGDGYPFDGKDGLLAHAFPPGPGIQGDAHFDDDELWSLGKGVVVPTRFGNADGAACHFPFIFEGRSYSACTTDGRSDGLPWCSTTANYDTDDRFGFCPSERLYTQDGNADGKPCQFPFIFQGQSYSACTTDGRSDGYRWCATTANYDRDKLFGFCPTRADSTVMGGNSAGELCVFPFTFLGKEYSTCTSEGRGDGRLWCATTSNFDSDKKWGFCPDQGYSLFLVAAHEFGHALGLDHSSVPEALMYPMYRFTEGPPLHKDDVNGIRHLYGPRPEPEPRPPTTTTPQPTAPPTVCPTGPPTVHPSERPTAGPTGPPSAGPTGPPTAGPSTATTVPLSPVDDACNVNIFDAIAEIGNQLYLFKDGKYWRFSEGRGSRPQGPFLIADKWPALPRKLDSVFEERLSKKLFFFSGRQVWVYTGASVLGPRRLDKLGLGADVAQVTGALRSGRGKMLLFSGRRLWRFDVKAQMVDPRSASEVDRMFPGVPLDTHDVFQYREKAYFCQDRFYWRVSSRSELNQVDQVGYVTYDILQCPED
method_description: Activity at MMP9
assay_context: read-out: Ki app
pKi: −log10 of the molar value.
Field: pKi. Provide a value for each of the molecules that follow.

Answered cases to consult:
sample_smiles	pKi
NC[C@H]1O[C@H](O[C@H]2[C@H](O)[C@@H](O)[C@H](N)C[C@@H]2N=C(N)N)[C@H](N=C(N)N)[C@@H](O)[C@@H]1O	< 3.52
CO[C@@H]1[C@@H](OC)[C@H](N=C(N)N)C[C@H](N=C(N)N)[C@H]1O[C@H]1O[C@H](CN=C(N)N)[C@@H](OC)[C@H](OC)[C@H]1N=C(N)N	< 3.52
NC[C@H]1O[C@H](O[C@H]2[C@H](O)[C@@H](O)[C@H](N=C(N)N)C[C@@H]2N=C(N)N)[C@H](N=C(N)N)[C@@H](O)[C@@H]1O	< 3.52

Task: Could you tell me which pKi is on file for N=C(N)NC[C@H]1O[C@H](O[C@H]2[C@H](O)[C@@H](O)[C@H](NC(=N)N)C[C@@H]2NC(=N)N)[C@H](NC(=N)N)[C@@H](O)[C@@H]1O ?
Result: < 3.52

// provenance: ChEMBL document CHEMBL1146910
